Provide the recorded koff for the entries that follow.
target-system: T1, human LAP-TGFB1 Fc fusion (human)
T1 construct: also called human LAP-TGFβ1-Fc; human LAP-TGFβ-Fc isoform 1
T1 sequence (chain, as listed by the source limits assumed): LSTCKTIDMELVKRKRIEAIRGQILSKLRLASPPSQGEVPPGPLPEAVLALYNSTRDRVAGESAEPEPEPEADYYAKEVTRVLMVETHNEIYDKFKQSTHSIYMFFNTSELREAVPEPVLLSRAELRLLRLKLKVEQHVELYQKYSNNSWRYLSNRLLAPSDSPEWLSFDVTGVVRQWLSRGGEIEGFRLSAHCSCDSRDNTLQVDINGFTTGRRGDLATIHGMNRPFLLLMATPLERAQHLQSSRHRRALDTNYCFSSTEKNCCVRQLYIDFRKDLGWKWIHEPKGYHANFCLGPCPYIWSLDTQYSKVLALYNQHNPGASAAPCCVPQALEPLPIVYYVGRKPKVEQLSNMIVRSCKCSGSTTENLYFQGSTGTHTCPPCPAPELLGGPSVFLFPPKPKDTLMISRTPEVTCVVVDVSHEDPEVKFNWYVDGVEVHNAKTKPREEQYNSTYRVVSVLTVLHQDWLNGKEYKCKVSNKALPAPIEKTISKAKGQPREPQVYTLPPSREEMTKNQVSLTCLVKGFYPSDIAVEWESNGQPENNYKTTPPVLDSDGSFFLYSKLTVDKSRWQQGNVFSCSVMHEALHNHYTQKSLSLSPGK
measurement-protocol: BLI off-rate screen
Only the number, expressed in s⁻¹, is required.

In: Value lookup for koff; key = VL T51Y (48BIT) (Fab, V domains shown) VH: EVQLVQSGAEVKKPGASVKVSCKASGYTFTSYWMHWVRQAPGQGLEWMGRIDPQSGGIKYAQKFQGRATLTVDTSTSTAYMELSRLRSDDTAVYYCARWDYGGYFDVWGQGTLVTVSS VL: DIQMTQSPSSLSASVGDRVTITCRASQDITNYLNWYQQKPGKAVKLLIYYYSRLHSGVPSRFSGSGSGTDYTLTISSLQPEDFATYFCQQGDTLPWTFGQGTKLEIKR
Out: 0.0508

In: Give the measured koff of VH G99Y (66BIT) (Fab, V domains shown) VH: EVQLVQSGAEVKKPGASVKVSCKASGYTFTSYWMHWVRQAPGQGLEWMGRIDPQSGGIKYAQKFQGRATLTVDTSTSTAYMELSRLRSDDTAVYYCARWDYGYYFDVWGQGTLVTVSS VL: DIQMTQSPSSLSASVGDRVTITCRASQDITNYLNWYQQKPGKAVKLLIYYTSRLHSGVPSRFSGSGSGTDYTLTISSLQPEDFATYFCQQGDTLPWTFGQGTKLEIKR .
Out: 0.0476

In: Which koff reading was recorded for the binder VL S56Y (53BIT) (Fab, V domains shown) VH: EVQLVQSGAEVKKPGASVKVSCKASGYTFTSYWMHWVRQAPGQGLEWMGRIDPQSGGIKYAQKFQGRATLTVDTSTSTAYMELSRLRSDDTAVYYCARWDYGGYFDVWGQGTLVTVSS VL: DIQMTQSPSSLSASVGDRVTITCRASQDITNYLNWYQQKPGKAVKLLIYYTSRLHYGVPSRFSGSGSGTDYTLTISSLQPEDFATYFCQQGDTLPWTFGQGTKLEIKR ?
Out: 0.0324

In: Param item = VH W95Y (88BIT) (Fab, V domains shown) VH: EVQLVQSGAEVKKPGASVKVSCKASGYTFTSYWMHWVRQAPGQGLEWMGRIDPQSGGIKYAQKFQGRATLTVDTSTSTAYMELSRLRSDDTAVYYCARYDYGGYFDVWGQGTLVTVSS VL: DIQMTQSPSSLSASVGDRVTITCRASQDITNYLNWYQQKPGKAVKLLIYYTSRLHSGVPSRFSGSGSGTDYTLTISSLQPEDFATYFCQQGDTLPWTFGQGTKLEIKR ; retrieve measured koff.
Out: 0.0425

In: Can you share its koff? I mean this binder: VH I57Y (83BIT) (Fab, V domains shown) VH: EVQLVQSGAEVKKPGASVKVSCKASGYTFTSYWMHWVRQAPGQGLEWMGRIDPQSGGYKYAQKFQGRATLTVDTSTSTAYMELSRLRSDDTAVYYCARWDYGGYFDVWGQGTLVTVSS VL: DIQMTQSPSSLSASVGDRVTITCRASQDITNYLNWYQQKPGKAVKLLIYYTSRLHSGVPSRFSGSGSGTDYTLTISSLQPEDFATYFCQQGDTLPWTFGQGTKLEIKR
Out: 0.043

Source of measurements: patent US20230272056A1
